The reported numbers originate from the supplement of paper PMC10567573.

B1: RIPK4 (parent)
chain: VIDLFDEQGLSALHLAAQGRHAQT

Variants of: B1
Assay: protein stability index of a GFP-peptide fusion (GPS, HEK-293T) (PSI 1-6); higher = more stable;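 note: lentivirally expressed fusions sorted by FACS into six bins by GFP to DsRed ratio, PSI derived from sequencing read proportions per bin multiplied by bin number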
Settings: c terminus: a fixed tail appended
Rule: criterion met for protein stability index not less than 2, criterion not met for anything less.

Answered cases to consult:
VIDLFDYQGLSALHLAAQGRHAQT
criterion not met
VIDLFDEQGHSALHLAAQGRHAQT
criterion met
VIDLFDEQGLSALHLAATGRHAQT
criterion met
VIDLFDEQGLSALHLAAQGRIAQT
criterion met
VIDLFDEQGLSANHLAAQGRHAQT
criterion met
VIDLFDEQGLSALHLAAQGRGAQT
criterion met
VIDLFDEQGLSALHVAAQGRHAQT
criterion met
VIDLFDEQGLSALHLAAQIRHAQT
criterion not met
VIDLFDEGGLSALHLAAQGRHAQT
criterion met
VIVLFDEQGLSALHLAAQGRHAQT
criterion not met

Kindly review the next variant as well.
Query :: Check this variant for protein stability index at or above 2: VIDLFDEQGLSALHLAAQGRSAQT
Result :: criterion met
